Assay: MTT test of cytotoxicity on HepG2.2.15 cells
Assay type: cell-based
Settings: human, read-out: CC50 (μM) (HepG2. 2. 15)
Threshold-based label: CC50 at 72 h under 700 µM gives 1 (yes), CC50 at 72 h not under 700 µM gives 0 (no).

COC(=O)[C@@H]1CCCN1c1ccn([C@@H]2O[C@@](CO)(N=[N+]=[N-])C(O)C2F)c(=O)n1 (stereo partly drawn): 1 (yes)
COC(=O)C(C)Nc1ccn([C@@H]2O[C@@](CO)(N=[N+]=[N-])C(O)C2F)c(=O)n1 (stereo partly drawn): 1 (yes)
[N-]=[N+]=N[C@]1(CO)O[C@@H](n2ccc(NCCCO)nc2=O)C(F)C1O (stereo partly drawn): 1 (yes)
[N-]=[N+]=N[C@]1(CO)O[C@@H](n2cc(C(=O)N3CCOCC3)c(=O)[nH]c2=O)C(F)C1O (stereo partly drawn): 1 (yes)
COC(=O)C[C@H](Nc1ccn([C@@H]2O[C@@](CO)(N=[N+]=[N-])C(O)C2F)c(=O)n1)C(=O)OC (stereo partly drawn): 1 (yes)
CONc1ccn([C@@H]2O[C@@](CO)(N=[N+]=[N-])C(O)C2F)c(=O)n1 (stereo partly drawn): 1 (yes)
[N-]=[N+]=N[C@]1(CO)O[C@@H](n2ccc(N(CCO)CCO)nc2=O)C(F)C1O (stereo partly drawn): 0 (no)
[N-]=[N+]=N[C@]1(CO)O[C@@H](n2ccc(NCC(N)=O)nc2=O)C(F)C1O (stereo partly drawn): 1 (yes)
[N-]=[N+]=N[C@]1(CO)O[C@@H](n2ccc(NCCc3ccc(O)cc3)nc2=O)C(F)C1O (stereo partly drawn): 0 (no)
CCONc1ccn([C@@H]2O[C@@](CO)(N=[N+]=[N-])C(O)C2F)c(=O)n1 (stereo partly drawn): 1 (yes)

input: CC50 at 72 h strictly < 700 µM for this compound? COC(=O)CC[C@H](Nc1ccn([C@@H]2O[C@@](CO)(N=[N+]=[N-])C(O)C2F)c(=O)n1)C(=O)OC (stereo partly drawn)
output: 0 (no)

input: CC50 at 72 h strictly < 700 µM for this compound? [N-]=[N+]=N[C@]1(CO)O[C@@H](n2ccc(NC3CCCCC3)nc2=O)C(F)C1O (stereo partly drawn)
output: 1 (yes)

input: CC50 at 72 h strictly < 700 µM for this compound? [N-]=[N+]=N[C@]1(CO)O[C@@H](n2cc(C(=O)N3CCSCC3)c(=O)[nH]c2=O)C(F)C1O (stereo partly drawn)
output: 1 (yes)

input: CC50 at 72 h strictly < 700 µM for this compound? [N-]=[N+]=N[C@]1(CO)O[C@@H](n2ccc(NO)nc2=O)C(F)C1O (stereo partly drawn)
output: 0 (no)
